Give growth inhibition for every item shown.
- EXPERIMENT: NCI Yeast Anticancer Drug Screen. Data for the cln2 rad14 strain (AID 165);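 further: 0% = growth equal to vehicle treated cultures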
- CONDITIONS: S. cerevisiae cln2 rad14 strain, at 50.0 µM (retest, dose inferred, filed as 5.0), hits give high values
About 79,000 compounds went through this panel and 15% of them were active in at least one assay; those are over-represented in the sample as a whole. Active and inactive are the calls of the source. No stated cut-off is given here; in the data, active means growth inhibition above about 70%; inactive means the rest.

growth inhibition reading for CCC[N+]1=C(/C=C/c2ccc3cccnc3c2O)C(C)(C)c2ccccc21 : 98% (active)

Entry under test: CCCCNCCCNCCCNC(=O)c1csc(-c2csc(CCNC(=O)C(NC(=O)C(C)C(O)C(C)NC(=O)C(NC(=O)c3nc(C(CC(N)=O)NCC(N)C(N)=O)nc(N)c3C)C(OC3OC(CO)C(O)C(O)C3OC3OC(CO)C(O)C(OC(N)=O)C3O)c3cnc[nH]3)C(C)O)n2)n1 (centres undefined) . Its growth inhibition was 94% (active)

For COc1ccc(/C=C/c2ccc3ccccc3n2)cc1OC the compound record lists growth inhibition as 96% (active)

response.value for O=[N+]([O-])C1C2C=CC(C2)[C@H]1c1ccc(Cl)cc1Cl (some centres undefined) (field: growth inhibition) = 73% (active)

----------
- EXPERIMENT: NCI Yeast Anticancer Drug Screen. Data for the sgs1 mgt1 strain (AID 161);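 further: 0% = growth of cultures given vehicle only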
- CONDITIONS: S. cerevisiae sgs1 mgt1 strain, at 50.0 µM (retest, dose inferred, filed as 5.0)
The panel holds about 79,000 compounds, 15% with a hit somewhere; the sample as a whole holds those more often. Active and inactive are the calls of the source. Rule as the data show it: active = growth inhibition above about 70%; inactive = the rest.
Pick from active, inactive when you respond.

Ask: What classification did CC(=O)N1c2ccccc2Sc2c1ccc1ccccc21 end up with in this test?
Reply: active

Ask: Test call, this compound: N#CC(Br)(C#N)Cc1ccccc1
Reply: active

Ask: # outcome recorded in this test, key = Ic1ccc2c(c1)N(c1ccccc1)c1cc(N=c3ccc4nc5ccc(I)cc5n(-c5ccccc5)c-4c3)ccc1N2
Reply: inactive

Ask: Name the outcome recorded for CC(=O)c1c2c(cc3c1CC1(Cc4cc5c(cc4C1)C(=O)CCC5)C3)CCCC2 (stereo unspecified) in the assay.
Reply: inactive

Ask: Which outcome was assigned to Cc1ccc(SCN2CCCCC2)cc1 (tested in a mixture with another compound) in this test?
Reply: inactive

Ask: Please indicate how the test categorized C1CCC(CCCCc2nn[nH]n2)CC1 .
Reply: active

----------
- EXPERIMENT: NCI Yeast Anticancer Drug Screen. Data for the rad50 strain (AID 155);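 further: 0% = growth of vehicle-only cultures of the same strain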
- CONDITIONS: S. cerevisiae rad50 strain growth inhibition; at 50.0 µM (retest, dose inferred, filed as 5.0); hits give high values
About 79,000 compounds went through this panel and 15% of them were active in at least one assay; those are over-represented in the sample as a whole.
ASSAY READOUT: growth inhibition (%)
Your answer is read as %, so omit the unit and give the number.

Reported growth inhibition for COC(=O)c1nnc(C(=O)OC)c2c1[nH]c1ccccc12 was 77

Note to self: growth inhibition recorded for O=[N+]([O-])c1ccc(O)c(C2CCCCC2)c1 was 98

Field growth inhibition (entry S=C(NCc1ccccc1)[S][Sb]([S]C(=S)NCc1ccccc1)[c]1ccccc1 ) reads 95

Record CC/C(=C(/CC)c1ccc([O-])cc1)c1ccc([O-])cc1.CC/C(=C(\CC)c1ccc([O-])cc1)c1ccc([O-])cc1.O=C([CH-]C(=O)c1ccccc1)c1ccccc1.O=C([CH-]C(=O)c1ccccc1)c1ccccc1.O=C([CH-]C(=O)c1ccccc1)c1ccccc1.O=C([CH-]C(=O)c1ccccc1)c1ccccc1.[Ti+4].[Ti+4] , field growth inhibition: 96

Value of growth inhibition reported for the compound CC(C)N(C(=O)C12C3C4C5(C#N)C3C1(C#N)C5C42I)C(C)C (stereo not given) is 41

The compound listed as ClC1(Cl)C(Cl)(Cl)C12c1ccccc1-c1ccccc12 has a reported growth inhibition of 94

Reported growth inhibition of COc1ccc(/C(Cl)=C(\c2ccc(OCCN(C)C)cc2)c2ccc(OC(=O)C(C)(C)C)cc2)cc1 : 23

Form: compound = CC/C(=C1\C=CC(=O)S1)C(CC)c1ccc(OC(C)=O)cc1 (stereo not given) ; growth inhibition = 99

Sample O=C1NC(c2ccccc2)(c2cccs2)C(=O)N1C1c2ccccc2Oc2ccccc21 (stereo not given) ; growth inhibition observed: 87

Lab note: measured growth inhibition of O=C1C=CC(=O)C2C1Cc1ccccc1C2c1ccccc1 (stereo not given) was 97

The reported growth inhibition of the compound O=C(Nc1ccc(C(=O)Nc2ccc3c(O)cc(S(=O)(=O)O)cc3c2)cc1)c1ccccc1 was -2

Form: compound = CC(C)C(O)(C(=O)OCN1C(=O)C2C3C=CC(C2C1=O)C1C2C(=O)N(COC(=O)C(O)(C(C)C)C(C)O)C(=O)C2C31)C(C)O (stereo not given) ; growth inhibition = -7

Form: compound = O[C@H](CNCCS)[C@@H](O)CNCCS ; growth inhibition = 14

The reported value for CN(C)c1ccccc1CCCCCCc1ccccc1N(C)C in terms of growth inhibition is 59

GET /value?item= CCOC(=O)C1SC(=Nc2cccc(Cl)c2C)N=C1C (stereo not given) &field=growth inhibition returns 83

Please fill in: growth inhibition reported for COC1OC(CBr)C(OC(C)=O)C(OC(C)=O)C1OC(C)=O (stereo not given) = -3

Record S=c1c2ccccc2[nH]c2ccccc12 . Reported growth inhibition: 86

GET /value?item= O=C1CSC(=S)N1Cc1ccncc1 &field=growth inhibition returns 38

Note to self: growth inhibition recorded for Cc1cccc(NC(=S)N/N=C(/c2ccccc2)c2ccccn2)c1 was 94

For O=[N+]([O-])c1ccc(O)c(-c2ccccc2)c1 the compound record lists growth inhibition as 99

----------
- EXPERIMENT: NCI Yeast Anticancer Drug Screen. Data for the mec2-1 strain (AID 157)
- CONDITIONS: S. cerevisiae mec2-1 strain, at 50.0 µM (retest, dose inferred, filed as 5.0)
Compounds without any hit were thinned out: in the full panel of roughly 79,000, 15% have a hit. The source made the active and inactive calls. No stated cut-off is given here; in the data, active means growth inhibition above about 70%; inactive means the rest.
Select the correct class. Options are TRUE (active), FALSE (inactive) and nothing else.

Ask: Per the assay record, what outcome was assigned to O=C(/C=C\c1ccc(Cl)c(Cl)c1)c1cccs1 ?
Reply: FALSE

Ask: Could you please tell me the result logged for OC(c1cc(-c2ccccc2)nc2cc(Cl)ccc12)C1CCCCN1 (centres undefined) in this assay?
Reply: FALSE

Ask: Identify the outcome logged in this assay for the compound shown: O=C(Nc1ccc(F)cc1)N1CCCCC1
Reply: FALSE

Ask: State the result this test recorded for CCOc1ccccc1NC(=O)/C(Cl)=C(\Cl)C(=O)O .
Reply: TRUE

Ask: Test call for this compound, please: COC(=O)C1c2cc(C)ccc2-c2ccc(C)cc21
Reply: FALSE

Ask: Would you mind telling me which call this test gave CCCCCCCCCCCCCCC/C([O-])=N/[N+](C)(C)CC(C)O (centres undefined) ?
Reply: TRUE

Ask: Per the records of this test, what outcome belongs to Cn1cc(-c2c3c(cc4c2OCO4)OCO3)c2ccccc21 ?
Reply: TRUE

Ask: Status in this test for NC(=O)NOCC1NC(=O)NC1=O (centres undefined) ?
Reply: FALSE

Ask: Recorded test outcome, item O=C(O)C1CCC(CC2CC3CCC2C3)CC1 (centres undefined)
Reply: FALSE

Ask: // outcome(item) with item = CCOC(=O)N1CCN(CCCCCCOc2c(Cl)cc(Cl)cc2Cl)CC1
Reply: TRUE

Ask: Hey, what did the test say about CCOC(=O)C1CC(C(=O)OCC)C(=O)C1=O (centres undefined) ?
Reply: TRUE

Ask: Recorded test call requested for CC(C)[CH2][Ge]([Cl])([Cl])[Cl]
Reply: FALSE

Ask: # outcome recorded in this test, key = O=C(O)/C=C\C(=O)Nc1ccc2c(c1)C(=O)c1cc(F)ccc1-2
Reply: FALSE

Ask: How did this test come out for O=[N+]([O-])c1cc(Br)cc2c1nc(NCCCO)c1ccccc12 ?
Reply: TRUE

Ask: Please state the recorded outcome for this compound: O=C(c1ccccc1)C1(C(=O)c2ccccc2)/C(=N\O)C2CCC1C2 (centres undefined)
Reply: TRUE

Ask: I would be grateful if you could indicate the recorded call for COc1ccc(/C=C/c2ccc3ccccc3n2)cc1OC .
Reply: TRUE

Ask: // outcome(item) with item = CN1C(=O)c2cccc3cc([N+](=O)[O-])cc(c23)C1=O
Reply: TRUE

Ask: How was O=C(O)C1OC(Oc2ccc3oc4ccccc4c(=O)c3c2)C(O)C(O)C1O (centres undefined) classified in this test?
Reply: FALSE

Ask: Call for entry CC1(C)C2CCC1(CS(=O)O)C(=O)C2.[Ag] (centres undefined) :
Reply: TRUE

Ask: Identify the outcome logged in this assay for the compound shown: CC(c1ccccc1)n1c2ccccc2c2c(N)ncnc21 (centres undefined)
Reply: TRUE

Ask: So what was the verdict on Cc1cccc2nc3nc(Cl)c(Cl)nc3n12 in this test?
Reply: TRUE

Ask: # fetch the recorded call for CCC(=O)[O][Bi]([c]1ccccc1)[c]1ccccc1 here
Reply: TRUE

Ask: Recorded test call requested for COC(=O)CCC(=O)N1C/C(=C\c2ccccc2)C(=O)/C(=C/c2ccccc2)C1
Reply: FALSE

Ask: Recorded call for COC(=O)C1(NC(=O)C(CC(=O)OCc2ccccc2)NC(=O)OCc2ccccc2)CCCCCC1 (centres undefined) ?
Reply: FALSE

Ask: What call does the record list for CCC(C(c1ccc(Cl)cc1)c1ccc(Cl)c(Cl)c1)[N+](=O)[O-] (centres undefined) ?
Reply: FALSE

Ask: Dear all, I need the recorded test outcome for Oc1ccc(COCCBr)c2cccnc12 , thank you.
Reply: TRUE

Ask: What classification did COC1/C=C\OC2(C)Oc3c(C)c(O)c4c(O)c(c5[nH]c(-c6ccccc6)nc5c4c3C2=O)NC(=O)/C(C)=C\C=C\C(C)C(O)C(C)C(O)C(C)C(OC(C)=O)C1C (centres undefined) end up with in this test?
Reply: TRUE

Ask: How was O=C(Nc1ccc(Cl)cc1)Nc1nnc(/C=C/c2ccc(Cl)c(Cl)c2)o1 classified in this test?
Reply: FALSE

Ask: Test call for this compound, please: O=c1c2ccccc2sc2cccc(NCCCN3CCN(CCCNc4cccc5sc6ccccc6c(=O)c45)CC3)c12
Reply: FALSE

Ask: Call for entry Cc1cc(NCCO)nc2c1ccc1ccccc12 :
Reply: FALSE

Ask: Please state the recorded outcome for this compound: Clc1nc(Cl)nc(N2CCCc3ccccc32)n1
Reply: TRUE

Ask: # fetch the recorded call for C/C(=N/NC(=S)Nc1cccc(Cl)c1)c1ccccn1 here
Reply: TRUE

Ask: Recorded test outcome, item O=[N+]([O-])c1ccc(C(Br)(Br)c2ccc([N+](=O)[O-])cc2)cc1
Reply: TRUE

Ask: // outcome(item) with item = NS(=O)(=O)c1ccc(NC(=S)/N=C/c2c(O)c3ccccc3[nH]c2=O)cc1
Reply: FALSE

Ask: Recorded test outcome, item C1C[OH+]CC[OH+]CCNCC[OH+]CC[OH+]CCN1.[Cl-].[Pt+4]
Reply: FALSE

Ask: For Oc1ccccc1C1C=C(c2ccccc2)NC(N2CCCCC2)=C1c1nc2ccccc2[nH]1 (centres undefined) , what call appears in the results of this test?
Reply: FALSE

Ask: Test call for this compound, please: CCC1(C)OC(=O)C(c2ccccc2)O1 (centres undefined)
Reply: FALSE

Ask: So what was the verdict on CC(C)OP(=O)(OC(C)C)/C(I)=N/Nc1ccc([N+](=O)[O-])cc1 in this test?
Reply: FALSE

Ask: Given Cc1ccc(-c2c(C#N)c(S)n(NS(=O)(=O)c3ccccc3)c(=O)c2C#N)cc1 , state the outcome it received in this test.
Reply: TRUE

Ask: What outcome does the record of this test show for C[n+]1c(/C=C/c2ccccc2Cl)ccc2ccccc21 ?
Reply: TRUE

Ask: Given O=C1OC2(c3ccc(O)cc3Oc3cc(O)ccc32)c2c1c(-c1ccccc1)c(-c1ccccc1)c(-c1ccccc1)c2-c1ccccc1 , state the outcome it received in this test.
Reply: FALSE

Ask: So what was the verdict on CN(C)CCCSc1c2ccccc2nc2cc(NCC(=O)Nc3ccccc3-c3ccccc3NC(=O)CNc3ccc4c(SCCCN(C)C)c5ccccc5nc4c3)ccc12 in this test?
Reply: TRUE

Ask: Hello, I am checking results. What call was entered for CNCC(O)c1cccc(O)c1 (centres undefined) ?
Reply: FALSE

Ask: Check the results log: what was the call for Cc1ccc(C(=O)C(CN(C)C)CN(C)C)cc1C ?
Reply: TRUE
